Source: PubChem BioAssay AID504810

- tested.on: Thyrotropin receptor (Homo sapiens) (UniProt P16473)
- Sequence (P16473 whole entry, looked up): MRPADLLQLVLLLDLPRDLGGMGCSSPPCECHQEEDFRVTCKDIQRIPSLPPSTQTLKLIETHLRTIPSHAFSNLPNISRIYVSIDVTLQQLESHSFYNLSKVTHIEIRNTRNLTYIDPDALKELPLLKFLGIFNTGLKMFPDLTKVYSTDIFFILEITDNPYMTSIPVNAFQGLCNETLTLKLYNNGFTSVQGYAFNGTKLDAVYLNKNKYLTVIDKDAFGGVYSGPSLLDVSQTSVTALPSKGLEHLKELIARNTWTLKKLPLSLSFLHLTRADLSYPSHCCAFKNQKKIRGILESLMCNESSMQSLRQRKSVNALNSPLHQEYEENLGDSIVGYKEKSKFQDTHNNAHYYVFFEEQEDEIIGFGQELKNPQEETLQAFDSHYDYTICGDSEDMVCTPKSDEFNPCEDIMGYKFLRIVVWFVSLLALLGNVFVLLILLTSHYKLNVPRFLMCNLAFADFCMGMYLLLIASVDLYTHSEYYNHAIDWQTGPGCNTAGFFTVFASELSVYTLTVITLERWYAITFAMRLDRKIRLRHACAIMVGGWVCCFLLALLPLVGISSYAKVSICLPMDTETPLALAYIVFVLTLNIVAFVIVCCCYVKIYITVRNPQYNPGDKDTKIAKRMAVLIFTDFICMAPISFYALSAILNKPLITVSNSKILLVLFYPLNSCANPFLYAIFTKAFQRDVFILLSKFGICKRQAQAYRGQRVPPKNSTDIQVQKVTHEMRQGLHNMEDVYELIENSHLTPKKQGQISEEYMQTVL
- assay.procedure: Antagonists of the Thyroid Stimulating Hormone Receptor: HTS campaign; note: % is set by controls: 0 for no effect and ±100 for the full control effect
- test.settings: TSHR-expressing cells, TSH-stimulated cAMP HTRF, 2 h; at 11.5 µM; active compounds read low
- Text: The thyroid-stimulating hormone receptor (TSHR) is a member of the 7 trans-membrane-spanning receptor (7TMR) family of cell surface receptors. TSHR-mediated hyperthyroidism is important in thyroid pathology. […] 1. […] The result is obtained by using a ViewLux read-out with HTRF settings.
Out of some 330,000 compounds screened, about 670 (0.2%) were called active. Many of the other results were omitted from the sample, so actives are more common in it than they were.
compounds and their reported activity change, negative = inhibition
endpoint.label: activity change, negative = inhibition (%)

[
  {
    "compound": "COc1cccc(N(CC(=O)NCc2ccccc2)C(=O)CCC(=O)Nc2nccs2)c1",
    "endpoint.result": -9.83
  },
  {
    "compound": "COc1ccc(S(=O)(=O)N2CCN(C)CC2)c(C)c1",
    "endpoint.result": -0.476
  },
  {
    "compound": "N#Cc1nc(Cc2cccc3ccccc23)oc1NCc1ccc2c(c1)OCO2",
    "endpoint.result": -94.7
  },
  {
    "compound": "Cc1ccsc1C(=O)OCC(=O)Nc1cccc(F)c1",
    "endpoint.result": -3.82
  },
  {
    "compound": "Cc1ccc(N(CCC(=O)O)S(=O)(=O)c2cccc(C(F)(F)F)c2)cc1",
    "endpoint.result": 22.4
  },
  {
    "compound": "COc1ccc(S(=O)(=O)NC2(C(F)(F)F)N=C3SCCN3C2=O)cc1 (stereo unspecified)",
    "endpoint.result": 17.4
  },
  {
    "compound": "CC(CCc1ccccc1)NCC(O)c1cccc([N+](=O)[O-])c1 (stereo unspecified)",
    "endpoint.result": 9.45
  },
  {
    "compound": "COc1ccc(N(CC(=O)NCc2ccc(F)cc2)C(=O)CCC(=O)Nc2nccs2)cc1",
    "endpoint.result": -77.8
  },
  {
    "compound": "CCO[C@@H]1OC(C(=O)NCc2nc3ccccc3[nH]2)=C[C@H](C2CCCCC2)[C@H]1CCCO",
    "endpoint.result": -6.97
  },
  {
    "compound": "O=C(COC(=O)COc1cccc(F)c1)NCC1CCCCC1",
    "endpoint.result": 8.58
  },
  {
    "compound": "COc1ccc(NC(=O)CSc2nnc(Cc3ccccc3)c(=O)n2N)cc1",
    "endpoint.result": 7.33
  },
  {
    "compound": "O=C(CN(C(=O)CCC(=O)Nc1nccs1)c1ccc(F)cc1)NCc1ccc2c(c1)OCO2",
    "endpoint.result": 21.9
  },
  {
    "compound": "CCNC(=O)N1CCN(S(=O)(=O)c2ccc3c(c2)OCCCO3)CC1",
    "endpoint.result": 13
  },
  {
    "compound": "C/C(=N\\NC(=O)c1cc(-c2ccc(O)cc2)nc2ccccc12)c1cccnc1",
    "endpoint.result": 0.505
  },
  {
    "compound": "CN1CCCc2cc(C#N)c(=O)[nH]c21",
    "endpoint.result": 4.52
  },
  {
    "compound": "O=C(NNC(=O)c1cc(-c2ccccc2Cl)nc2ccccc12)c1csc(N2CCOCC2)n1",
    "endpoint.result": 0.138
  },
  {
    "compound": "O=C(NC(Nc1nc2ccc([N+](=O)[O-])cc2s1)(C(F)(F)F)C(F)(F)F)c1ccccc1",
    "endpoint.result": -78.9
  },
  {
    "compound": "Cc1cc(CNC(=O)c2cccc([N+](=O)[O-])c2)c2ccccc2n1",
    "endpoint.result": -9.8
  },
  {
    "compound": "N=C1C(c2nc3ccccc3s2)=C(O)CN1NC(=O)c1ccc([N+](=O)[O-])cc1",
    "endpoint.result": -1.44
  },
  {
    "compound": "Fc1ccc(-n2c(Cc3ccccc3)nnc2SCc2nc(-c3ccc(Cl)cc3)no2)cc1",
    "endpoint.result": 7.8
  },
  {
    "compound": "c1n[nH]c(NCc2ccc3c(c2)OCO3)n1",
    "endpoint.result": 5.91
  }
]

----------
- tested.on: Thyrotropin receptor (Homo sapiens) (UniProt P16473)
- assay.procedure: Antagonists of the Thyroid Stimulating Hormone Receptor: HTS campaign; note: % is set by controls: 0 for no effect and ±100 for the full control effect
- test.settings: TSHR-expressing cells, TSH-stimulated cAMP HTRF, 2 h; at 11.5 µM; active compounds read low
- Text: The thyroid-stimulating hormone receptor (TSHR) is a member of the 7 trans-membrane-spanning receptor (7TMR) family of cell surface receptors. TSHR-mediated hyperthyroidism is important in thyroid pathology. […] 1. […] The result is obtained by using a ViewLux read-out with HTRF settings.
In all, about 330,000 compounds went through this assay and about 670 (0.2%) were called active. The entries come from a sample that favours actives as a whole.
compounds and their reported activity change, negative = inhibition

[
  {
    "compound": "OCC(O)CN(c1ccccc1)c1ccccc1 (stereo not given)",
    "activity change, negative = inhibition / %": 3.75
  },
  {
    "compound": "COc1cccc(CNS(=O)(=O)c2ccc3c(c2)CC(C)N3C(C)=O)c1 (stereo not given)",
    "activity change, negative = inhibition / %": -6.62
  },
  {
    "compound": "Cc1cccc(C(=O)NNC(=O)CSc2nnc(C(C)C)n2C)c1",
    "activity change, negative = inhibition / %": 2.38
  },
  {
    "compound": "COc1cc(OC)c(S(=O)(=O)Nc2ccccc2C(=O)O)cc1S(=O)(=O)Nc1ccccc1C(=O)O",
    "activity change, negative = inhibition / %": -2.52
  },
  {
    "compound": "CCOc1ccc(NC(=O)c2ccccc2NS(C)(=O)=O)cc1",
    "activity change, negative = inhibition / %": 5.45
  },
  {
    "compound": "CC(=O)N1c2ccc(S(=O)(=O)N(C)CC(=O)N(C)Cc3ccccc3)cc2CC1C (stereo not given)",
    "activity change, negative = inhibition / %": -99.1
  },
  {
    "compound": "CCNC(=O)NC(=O)C(C)OC(=O)C1CCN(S(=O)(=O)c2ccccc2F)CC1 (stereo not given)",
    "activity change, negative = inhibition / %": 15.3
  },
  {
    "compound": "O=C(O)CCn1cc(/C=C/C(=O)c2ccc(Cl)cc2)c(-c2cccc(Br)c2)n1",
    "activity change, negative = inhibition / %": -11.6
  },
  {
    "compound": "Cc1cc(C(=O)NC2CCCc3c2cnn3-c2cccc(C)c2C)c(C)o1 (stereo not given)",
    "activity change, negative = inhibition / %": -79.3
  },
  {
    "compound": "Cc1cc(C)n2nc(C(=O)OC(C)C(=O)c3cc(C)c(C)cc3C)nc2n1 (stereo not given)",
    "activity change, negative = inhibition / %": 23.5
  }
]

----------
- tested.on: Thyrotropin receptor (Homo sapiens) (UniProt P16473)
- assay.procedure: Antagonists of the Thyroid Stimulating Hormone Receptor: HTS campaign; note: % is set by controls: 0 for no effect and ±100 for the full control effect
- test.settings: TSHR-expressing cells, TSH-stimulated cAMP HTRF, 2 h; at 11.5 µM
Among all 330,000 compounds or so, about 670 (0.2%) were called active.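 How the source made its calls: active means activity change below a set negative limit, meaning inhibition stronger than a set level (cut at about -70% in these data); inconclusive means activity change between two set negative limits; inactive means the rest.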 The full list was thinned out, with actives kept by preference.
Outcome codes: 1.0 for active, 0.0 for inactive

[
  {
    "compound": "NC1CCN(O)C1=O (configuration not stated)",
    "tested.on": "Thyrotropin receptor (Homo sapiens) (UniProt P16473)",
    "classification": 0.0
  },
  {
    "compound": "COCCn1c(Cc2cccn2C)nnc1SCC(=O)Nc1nccs1",
    "tested.on": "Thyrotropin receptor (Homo sapiens) (UniProt P16473)",
    "classification": 0.0
  },
  {
    "compound": "Cc1cc(C)c2c(-c3ccc(F)cc3)c(C#N)c(=O)n(C)c2n1",
    "tested.on": "Thyrotropin receptor (Homo sapiens) (UniProt P16473)",
    "classification": 0.0
  },
  {
    "compound": "Cc1cc(C)c(C#N)c(SCC(=O)Nc2ccccc2)n1",
    "tested.on": "Thyrotropin receptor (Homo sapiens) (UniProt P16473)",
    "classification": 0.0
  },
  {
    "compound": "O=C(CN1C(=O)NC2(CCCCCC2)C1=O)Nc1ccc([N+](=O)[O-])cc1",
    "tested.on": "Thyrotropin receptor (Homo sapiens) (UniProt P16473)",
    "classification": 0.0
  },
  {
    "compound": "COc1ccccc1C(=O)NCCC(=O)N(C)Cc1cccnc1",
    "tested.on": "Thyrotropin receptor (Homo sapiens) (UniProt P16473)",
    "classification": 0.0
  },
  {
    "compound": "Cc1ccc(S(=O)(=O)N2[C@@H](c3ccc(Br)cc3)C(C(=O)O)=C[C@H]2CC2CCCC2)cc1",
    "tested.on": "Thyrotropin receptor (Homo sapiens) (UniProt P16473)",
    "classification": 0.0
  },
  {
    "compound": "CCN(CC)C(=O)CSc1nnc(-c2ccc(S(=O)(=O)NCc3ccccc3Cl)cc2)o1",
    "tested.on": "Thyrotropin receptor (Homo sapiens) (UniProt P16473)",
    "classification": 0.0
  },
  {
    "compound": "CCCCC(C(=O)NC(C)(C)C)N(Cc1ccccc1)C(=O)c1snc(C(N)=O)c1N (configuration not stated)",
    "tested.on": "Thyrotropin receptor (Homo sapiens) (UniProt P16473)",
    "classification": 0.0
  },
  {
    "compound": "Cc1ccccc1CN1C[C@@H]2C[C@@H](c3cn(C)nc3-c3ccccc3)N3CCC[C@@]23C1=O",
    "tested.on": "Thyrotropin receptor (Homo sapiens) (UniProt P16473)",
    "classification": 0.0
  },
  {
    "compound": "O=C(CCSCCc1ccccn1)Nc1nccs1",
    "tested.on": "Thyrotropin receptor (Homo sapiens) (UniProt P16473)",
    "classification": 0.0
  },
  {
    "compound": "Oc1c(Cl)cc(Cl)c(Cl)c1Cc1c(O)c(Cl)cc(Cl)c1Cl",
    "tested.on": "Thyrotropin receptor (Homo sapiens) (UniProt P16473)",
    "classification": 1.0
  }
]
